The origin of these recorded values is the supplement of paper PMC10065799.

Exercise: state measured phosphorylation enrichment for each of the sequences provided.
Target: Hck (UniProt P08631)
Sequence (P08631 whole entry, looked up): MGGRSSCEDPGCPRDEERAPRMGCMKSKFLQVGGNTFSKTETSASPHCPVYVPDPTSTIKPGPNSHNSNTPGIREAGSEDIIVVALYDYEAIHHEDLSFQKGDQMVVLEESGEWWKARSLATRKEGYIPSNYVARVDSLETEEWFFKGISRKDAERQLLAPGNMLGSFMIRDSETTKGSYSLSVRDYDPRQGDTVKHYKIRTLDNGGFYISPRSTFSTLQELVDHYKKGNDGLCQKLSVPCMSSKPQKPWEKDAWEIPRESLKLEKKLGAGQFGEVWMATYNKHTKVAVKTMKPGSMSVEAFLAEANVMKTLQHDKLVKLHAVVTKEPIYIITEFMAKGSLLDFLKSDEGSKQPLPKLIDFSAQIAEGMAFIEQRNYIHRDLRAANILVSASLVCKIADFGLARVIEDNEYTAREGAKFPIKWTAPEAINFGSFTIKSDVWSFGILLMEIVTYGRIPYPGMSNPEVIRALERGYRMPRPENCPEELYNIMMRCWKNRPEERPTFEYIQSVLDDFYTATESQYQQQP
Experiment: phosphorylation enrichment, bacterial display (enrichment ratio); higher = better substrate or ligand; peptides without Tyr show the background
Numbers only.

Reference set, count: 6
FQVRRYDCDCD [CRYGS_Y21_G18V]    0.498
QRASDYYSQQM [GBP6_Y333_A331S]    0.788
DAASNYARGHF [TUBA3E_Y103_YF]    0.47
SVVVPFEPPEV [TP53_Y220_Y220F]    0.502
LKRIAYFLCLR [LGI1_Y21_L26R]    0.37
YFCRWYRNQKS [EREG_Y144_R147Q]    0.372

--- query ---
Problem: Which phosphorylation enrichment reading was recorded for the sequence QHVPDYRQNGF [PCDHGA1_Y890_V894G_YF] ?
Solution: 0.455

###

System: c-Src
Assay: phosphorylation enrichment, bacterial display (enrichment ratio); higher = better substrate or ligand; peptides without Tyr show the background
Exercise: state measured phosphorylation enrichment for each of the sequences provided.
One number for each entry.

Reference set, count: 6
ECIEFYELDKK [PMM2_Y145_R141C]    0.999
IGERTYGQVFK [CDK13_Y716_G714R_YF]    5.22
VILARYGPAWR [CYP2D6_Y124_F120I]    0.503
SGAWSYNTSTE [SELE_Y24]    0.378
PLDGEYFTLRI [TP53_Y327_Q331R]    3.13
NTGGYYDLYGG [PTPN11_Y63_D61G]    5.05

For each of the items listed, what is its phosphorylation enrichment?
1. NAPNSYGRRPS [CDKN2A_Y44_I49S]
2. KKGIVYIFNGR [ITGAV_Y404]

Solution:
0.49
0.366

For each of the items listed, what is its phosphorylation enrichment?
1. GQAPGYSFTAA [CYCS_Y47_YF]
2. FLENFYDLEKD [MMP3_Y42_K45E_YF]
3. IRGNMYFENSF [EGFR_Y112_YF]
4. RGERPYGGGGG [FUS_Y526_R522G]
5. LADKPYTFEFF [FXN_Y118_D122Y_YF]
6. PLDEEYFTLQI [TP53_Y327_G325E]
7. VPVDGYISGLL [PAK6_Y81_M76V]

Solution:
1. 0.503
2. 2.23
3. 0.395
4. 0.415
5. 2.87
6. 2.69
7. 0.657

###

System: c-Src
Experiment: phosphorylation enrichment, bacterial display (enrichment ratio); higher = better substrate or ligand; peptides without Tyr show the background
phosphorylation enrichment vs 0.5: at or above is true (1), below is false (0).

Problem: Quick check: does LYSINYLHFGE [KDM4C_Y201] have phosphorylation enrichment greater than or equal to 0.5?
Solution: true (1)

Problem: Quick check: does SVTCTYSPAIN [TP53_Y126_L130I] have phosphorylation enrichment greater than or equal to 0.5?
Solution: true (1)

###

Exercise: state measured phosphorylation enrichment for each of the sequences provided.
Biological target: MERTK (UniProt Q12866)
Sequence (Q12866 whole entry, looked up): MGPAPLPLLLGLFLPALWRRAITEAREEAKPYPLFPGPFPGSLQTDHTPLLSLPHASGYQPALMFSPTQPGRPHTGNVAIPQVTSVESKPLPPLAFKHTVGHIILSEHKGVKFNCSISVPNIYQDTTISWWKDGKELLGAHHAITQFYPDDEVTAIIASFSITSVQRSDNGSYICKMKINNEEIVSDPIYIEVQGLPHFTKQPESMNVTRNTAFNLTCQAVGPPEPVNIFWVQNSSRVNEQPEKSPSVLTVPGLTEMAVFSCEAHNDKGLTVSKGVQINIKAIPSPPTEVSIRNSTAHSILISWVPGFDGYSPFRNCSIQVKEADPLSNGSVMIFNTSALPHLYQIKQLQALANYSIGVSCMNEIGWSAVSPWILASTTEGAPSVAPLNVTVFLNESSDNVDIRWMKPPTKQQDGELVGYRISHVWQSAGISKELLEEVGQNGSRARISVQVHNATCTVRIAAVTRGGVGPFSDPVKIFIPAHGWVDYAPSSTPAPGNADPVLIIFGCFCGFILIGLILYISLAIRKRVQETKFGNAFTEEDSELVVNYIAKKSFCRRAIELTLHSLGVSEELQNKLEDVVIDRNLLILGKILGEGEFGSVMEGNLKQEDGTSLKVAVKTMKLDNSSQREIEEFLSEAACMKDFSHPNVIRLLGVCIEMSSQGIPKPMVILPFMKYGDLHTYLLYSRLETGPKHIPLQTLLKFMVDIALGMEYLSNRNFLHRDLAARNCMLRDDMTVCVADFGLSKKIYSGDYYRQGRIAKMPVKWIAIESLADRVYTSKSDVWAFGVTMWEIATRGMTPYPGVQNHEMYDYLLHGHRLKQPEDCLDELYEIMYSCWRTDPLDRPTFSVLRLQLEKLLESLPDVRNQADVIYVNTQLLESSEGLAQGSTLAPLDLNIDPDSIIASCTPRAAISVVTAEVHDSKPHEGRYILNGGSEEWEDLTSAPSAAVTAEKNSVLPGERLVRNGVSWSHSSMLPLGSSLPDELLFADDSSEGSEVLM
Assay: phosphorylation enrichment, bacterial display (enrichment ratio); higher = better substrate or ligand; peptides without Tyr show the background
Numbers only.

ERLWDYGMSSS [F8_Y1728]    0.399
FRIDHYLGKEM [G6PD_Y202_YF]    0.371
VLRRVYVDFEG [KMT2B_Y1707]    0.435
TSNQEYLDVSM [FGFR1_Y766_L769V]    0.441
ADSLRYIYPKL [EIF2B3_Y92]    0.43
CTTIHYNFICN [TP53_Y234_M237I_YF]    0.439
EEQKKYYNAVK [SCN5A_Y1494_M1498V]    0.426
DPEATYTTSGS [EPHA2_Y772_G777S]    0.34
VSYDEYRYRSV [CFTR_Y515]    0.428
KELANYYKLHH [AK7_Y390]    0.844

For each of the items listed, what is its phosphorylation enrichment?
1. DWQQEYVLNES [TGM1_Y267_R264Q]
2. SSVKLYRVYCD [FGB_Y266_P265L]

Solution:
1. 0.427
2. 0.459

###

Biological target: EPHB1 (UniProt P54762)
Sequence (P54762 whole entry, looked up): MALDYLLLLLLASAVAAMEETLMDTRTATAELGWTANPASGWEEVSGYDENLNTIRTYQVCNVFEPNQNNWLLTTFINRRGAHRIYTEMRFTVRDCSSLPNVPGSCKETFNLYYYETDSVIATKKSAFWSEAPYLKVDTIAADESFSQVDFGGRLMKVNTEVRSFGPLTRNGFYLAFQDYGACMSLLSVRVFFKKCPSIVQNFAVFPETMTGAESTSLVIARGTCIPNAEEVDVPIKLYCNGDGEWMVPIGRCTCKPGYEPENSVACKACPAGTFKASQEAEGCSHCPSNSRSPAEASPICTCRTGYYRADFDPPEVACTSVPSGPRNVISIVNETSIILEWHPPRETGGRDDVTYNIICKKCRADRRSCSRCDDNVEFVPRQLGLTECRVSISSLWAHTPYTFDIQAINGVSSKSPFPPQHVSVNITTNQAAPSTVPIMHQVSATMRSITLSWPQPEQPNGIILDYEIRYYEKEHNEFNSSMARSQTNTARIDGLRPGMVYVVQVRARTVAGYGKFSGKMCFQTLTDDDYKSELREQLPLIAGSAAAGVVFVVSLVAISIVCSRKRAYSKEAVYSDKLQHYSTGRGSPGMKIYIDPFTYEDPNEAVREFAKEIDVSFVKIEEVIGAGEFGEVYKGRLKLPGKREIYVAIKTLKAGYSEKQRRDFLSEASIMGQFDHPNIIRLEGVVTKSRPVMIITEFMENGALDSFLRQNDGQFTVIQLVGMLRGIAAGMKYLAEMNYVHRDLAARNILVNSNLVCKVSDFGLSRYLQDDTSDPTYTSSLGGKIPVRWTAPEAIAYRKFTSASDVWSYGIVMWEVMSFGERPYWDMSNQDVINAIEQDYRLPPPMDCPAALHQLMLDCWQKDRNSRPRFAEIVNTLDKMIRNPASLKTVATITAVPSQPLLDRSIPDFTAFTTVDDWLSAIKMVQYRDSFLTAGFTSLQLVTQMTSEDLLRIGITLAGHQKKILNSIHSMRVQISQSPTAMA
Test: phosphorylation enrichment, bacterial display (enrichment ratio); higher = better substrate or ligand; peptides without Tyr show the background
Recorded endpoint: phosphorylation enrichment
One number for each entry.

For each of the items listed, what is its phosphorylation enrichment?
1. TDTAAYEERVR [SPTB_Y474]
2. NTDETYCIDNE [TUBB2B_Y200]
3. ATDLAYFLVRK [ASL_Y375_YF]
4. DGMADCSDPSY [CDC5L_Y459_Y459C]
5. TYEPNYGTVKQ [RAPGEF6_Y1447]

Solution:
1. 0.692
2. 0.813
3. 0.73
4. 0.607
5. 1.54

###

Target: SHP2-C SH2;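 note: peptide library displayed on the E. coli surface as eCPX fusions, selected cells deep-sequenced, score is each peptide's frequency after selection divided by its frequency in the input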
Assay: SH2 binding enrichment of the phosphorylated peptide, bacterial display (enrichment ratio); higher = better substrate or ligand; peptides without Tyr show the background
Exercise: state measured SH2 binding enrichment for each of the sequences provided.
Answers are plain numbers.

Reference set, count: 10
FLENFYDLEKD [MMP3_Y42_K45E_YF]    0.907
QKPLDYFRVNL [GALE_Y104_YF]    0.68
FFHCTYKKRMI [CLEC12A_Y242_YF]    1.15
ITGNGYYFRVF [MYBPC3_Y1135_I1131T]    0.799
TSYQMYDKGLV [IARS2_Y231_F227S]    0.759
NTYENYWPFYQ [GATM_Y103_K102N]    1.81
DWQQEYVLNES [TGM1_Y267_R264Q]    0.681
LHVGFYESDVM [A2M_Y708_R704H]    0.721
SFLFHYADDSF [RAB3C_Y50_R49H]    1.08
NKPTVCGVSPN [ABL1_Y226_Y226C]    0.841

For each of the items listed, what is its SH2 binding enrichment?
1. KHTLSFVDVGT [SDHA_Y629_Y629F]
2. LERFIYNREEL [HLA-DPB1_Y59_F64L_YF]
3. QRIHDYYEHRY [HCN4_Y554]
4. DSSIRYLQEIY [FGG_Y135]
5. TLQVMYGCDVG [HLA-B_Y123_S121V]

Solution:
1: 0.54; 2: 0.85; 3: 1; 4: 0.629; 5: 0.883

###

Tested on: Fer (mouse)
Experiment: phosphorylation enrichment, bacterial display (enrichment ratio); higher = better substrate or ligand; peptides without Tyr show the background
phosphorylation enrichment vs 0.5: at or above is True, below is False.

Would you please look over these solved cases?
HEDPMYDIIRD [RP9_Y142]    True
IRTIDYRYTVC [IDS_Y497_W502C]    True
KPGVNYFFQVS    True
HEKKVYSFCGT [RPS6KA3_Y226_A225V]    False
SYDLDYDSVQP [MYC_Y16_N11S]    True

Problem: Quick check: does RRNVFYFSFLL [PTEN_Y177_Y174N_YF] have phosphorylation enrichment greater than or equal to 0.5?
Solution: True

Problem: Quick check: does NTGGYYDLYGG [PTPN11_Y63_D61G] have phosphorylation enrichment greater than or equal to 0.5?
Solution: True

Problem: Quick check: does FGPPQYNMQFS [ERBB2IP_Y977_I979M_YF] have phosphorylation enrichment greater than or equal to 0.5?
Solution: False

Problem: Quick check: does PFDAEYGGGGG [AKR1B10_Y316_N313D] have phosphorylation enrichment greater than or equal to 0.5?
Solution: True

Problem: Quick check: does YAADYYKLLGN [ROR2_Y646] have phosphorylation enrichment greater than or equal to 0.5?
Solution: True

Problem: Quick check: does SNFRAYATEPH [TNNI3_Y29_YF] have phosphorylation enrichment greater than or equal to 0.5?
Solution: False

Problem: Quick check: does ISSLDYISKSK [VAV3_Y294_T298S] have phosphorylation enrichment greater than or equal to 0.5?
Solution: False

Problem: Quick check: does PFTDPYFDFEI [ZC3H18_Y371_A368T_YF] have phosphorylation enrichment greater than or equal to 0.5?
Solution: True

Problem: Quick check: does LDTFIYDAAVL [GRIN2A_Y730_A727T] have phosphorylation enrichment greater than or equal to 0.5?
Solution: True

Problem: Quick check: does GSESDYIIMPN [SCARB1_Y133_V135I] have phosphorylation enrichment greater than or equal to 0.5?
Solution: False

###

Molecular target: Hck (UniProt P08631)
Test: phosphorylation enrichment, bacterial display (enrichment ratio); higher = better substrate or ligand; peptides without Tyr show the background
Exercise: state measured phosphorylation enrichment for each of the sequences provided.
One number for each entry.

Reference set, count: 5
NSIGNYFKPWF [DHCR24_Y299_YF]    0.492
DEEPPDRGPFC [SASH1_Y551_Y551D]    0.496
MKSIKYMDKEV [CCDC60_Y41_I46V]    0.399
LNCIYYKDQTG [RS1_Y166_W163C]    4.01
SRNKPYISWPS [CDC42BPB_Y1638]    0.485

For each of the items listed, what is its phosphorylation enrichment?
1. KLPDAYEPLIL [G6PD_Y437_R439P]
2. KDHRDYKYQPR [SOX9_Y172_P170R]
3. GHLYANDWISI [BEST1_Y227_Y227N]
4. LGRTRYQHVTG [MIPEP_Y510]
5. PFDAEYGGGGG [AKR1B10_Y316_N313D]

Solution:
[1.08, 0.489, 0.575, 0.309, 1.14]

For each of the items listed, what is its phosphorylation enrichment?
1. IPQEEYTATGL
2. KKGIVYIFNGR [ITGAV_Y404]
3. REAAAYLHGRL [AGXT_Y297]

Solution:
[0.461, 0.423, 0.479]

For each of the items listed, what is its phosphorylation enrichment?
1. VVLVSYVPSSQ [SH2B1_Y624]
2. TFRPPYYHRNC [HGD_Y333]

Solution:
0.433
0.524
